- Measurement Target: NHERF4_4, Q86UT5
- Sequence (Q86UT5 464-550): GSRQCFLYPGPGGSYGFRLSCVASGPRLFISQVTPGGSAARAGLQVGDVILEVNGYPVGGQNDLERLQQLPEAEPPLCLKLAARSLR
- Assay Text: holdup assay
- Set-up: key: below the threshold = too weak to quantify, mostly under pKd 3.1 to 4
- Stated Conditions: plain residues with an end cap or a label only (N-terminal biotin on a linker: ado-ado)
Readout: pKd

IKLETKKTKL [SLC15A2, Q16348] : below the threshold
GDSSRKEYFI [GYPC, P04921] : below the threshold
RSPVATATSC [DUSP5, Q16690] : below the threshold
HYPASPDSWV [CTNND2, Q9UQB3] : below the threshold
SGDGKTSVWI [GJC1, P36383] : 4.24

Next binder, pKd to be filled in.
So for RDYTQSSSSL [GRM5, P41594] , the logged pKd turned out to be below the threshold

These entries and their values trace back to paper PMC9482650.
